The origin of these recorded values is patent US8952024B2.

Tested on: downy bromegrass (Bromus tectorum)
TEST SUMMARY: Test B pre-/postemergence plant response
Type: in vivo
EXPERIMENTAL SETUP: 62 g ai/ha, postemergence; 0 is no effect, 100 is complete control; 13 to 15 days
// reported Bromegrass, Downy plant response rating (0 to 100 scale) for each item listed
// response body must contain only the number

Use the examples below as a reference point.
[[record]]
compound = "O=C1CCCC(O)=C1C(=O)c1cnc(-c2cccc(F)c2)n(C2CCCCC2)c1=O [Compound 187]"
experimental_value = 30

[[record]]
compound = "CCCc1ncc(C(=O)C2=C(O)CCCC2=O)c(=O)n1CC1CCCO1 (centres unmarked) [Compound 74]"
experimental_value = 5


Look up and state reported Bromegrass, Downy plant response rating (0 to 100 scale) for CCCn1c(-c2cc(C)cc(C)c2)ncc(C(=O)C2=C(O)CCCC2=O)c1=O [Compound 156]
10

Look up and state reported Bromegrass, Downy plant response rating (0 to 100 scale) for CCCCn1c(-c2cc(F)cc(F)c2)ncc(C(=O)C2=C(O)CCCC2=O)c1=O [Compound 121]
50

Look up and state reported Bromegrass, Downy plant response rating (0 to 100 scale) for CCCCCn1c(-c2ccccc2)ncc(C(=O)C2=C(O)CCCC2=O)c1=O [Compound 89]
0

* * *

System: johnsongrass (Sorghum halepense)
TEST SUMMARY: Test B pre-/postemergence plant response
Assay type: in vivo
EXPERIMENTAL SETUP: Postemergence, 250 g ai/ha; scale 0 to 100
MEASUREMENT KIND: Johnsongrass plant response rating
// response body must contain only the number

Use the examples below as a reference point.
[[record]]
compound = "Cc1ccc(-n2c(-c3ccccc3)ncc(C(=O)C3=C(O)CCCC3=O)c2=O)cc1 [Compound 8]"
experimental_value = 100

[[record]]
compound = "Cc1ccc(F)cc1-n1c(-c2ccccc2)ncc(C(=O)C2=C(O)CCCC2=O)c1=O [Compound 44]"
experimental_value = 95

[[record]]
compound = "Cc1cccc(Cl)c1-n1c(-c2ccccc2)ncc(C(=O)C2=C(O)CCCC2=O)c1=O [Compound 46]"
experimental_value = 75


Now, please, on to the next compound.
Look up and state reported Johnsongrass plant response rating for Cc1cc(C)cc(-n2c(-c3ccccc3)ncc(C(=O)C3=C(O)CCCC3=O)c2=O)c1 [Compound 33]
40

* * *

Tested on: velvetleaf (Abutilon theophrasti)
TEST SUMMARY: Test B pre-/postemergence plant response
Assay type: in vivo
EXPERIMENTAL SETUP: Postemergence, 62 g ai/ha; scale 0 (no effect) to 100 (complete control); 13 to 15 days
From the text: […] Treated plants and controls were maintained in a greenhouse for 13 to 15 days, after which time all treated plants were visually evaluated and compared to controls. […]
MEASUREMENT KIND: Plant response rating, Velvetleaf
// response body must contain only the number

[[record]]
molecule = "O=C1CCCC(O)=C1C(=O)c1cnc(-c2ccsc2)n(-c2ccccc2)c1=O [Compound 56]"
measurement_kind = "Plant response rating, Velvetleaf"
experimental_value = 90

[[record]]
molecule = "O=C1CCCC(O)=C1C(=O)c1cnc(-c2cccc(Cl)c2)n(-c2ccc(Cl)cc2)c1=O [Compound 64]"
measurement_kind = "Plant response rating, Velvetleaf"
experimental_value = 98

[[record]]
molecule = "Cc1ccc(-n2c(-c3ccccc3)ncc(C(=O)C3=C(O)CCCC3=O)c2=O)cc1 [Compound 8]"
measurement_kind = "Plant response rating, Velvetleaf"
experimental_value = 80


Look up and state reported Plant response rating, Velvetleaf for Cc1cc(C)cc(-n2c(-c3ccccc3)ncc(C(=O)C3=C(O)CCCC3=O)c2=O)c1 [Compound 33]
90

Look up and state reported Plant response rating, Velvetleaf for CCCCc1ncc(C(=O)C2=C(O)CCCC2=O)c(=O)n1-c1cccc(C)c1 [Compound 63]
98

* * *

System: cocklebur (Xanthium strumarium)
TEST SUMMARY: Test B pre-/postemergence plant response
Format: in vivo
EXPERIMENTAL SETUP: 250 g ai/ha, Preemergence, 0 to 100 scale
Simple rule here: Plant response rating, Cocklebur less than 40 is Satisfied, otherwise Not satisfied.

[[record]]
molecule = "CCCCc1ncc(C(=O)C2=C(O)CCCC2=O)c(=O)n1-c1cccc(C)c1 [Compound 63]"
study_target = "cocklebur (Xanthium strumarium)"
class_name = "Satisfied"

[[record]]
molecule = "Cc1ccc(F)cc1-n1c(-c2ccccc2)ncc(C(=O)C2=C(O)CCCC2=O)c1=O [Compound 44]"
study_target = "cocklebur (Xanthium strumarium)"
class_name = "Not satisfied"

[[record]]
molecule = "O=C1CCCC(O)=C1C(=O)c1cnc(-c2ccccc2)n(-c2ccccc2F)c1=O [Compound 26]"
study_target = "cocklebur (Xanthium strumarium)"
class_name = "Not satisfied"


Hello, I'm reviewing records and need to know if Plant response rating, Cocklebur of Cn1c(-c2ccccc2)ncc(C(=O)C2=C(O)CCCC2=O)c1=O [Compound 55] is below 40. Could you check?
Satisfied

Hello, I'm reviewing records and need to know if Plant response rating, Cocklebur of Cc1ccccc1-n1c(-c2cccc(Cl)c2)ncc(C(=O)C2=C(O)CCCC2=O)c1=O [Compound 36] is below 40. Could you check?
Not satisfied

Hello, I'm reviewing records and need to know if Plant response rating, Cocklebur of O=C1CCCC(O)=C1C(=O)c1cnc(-c2ccsc2)n(-c2ccccc2)c1=O [Compound 56] is below 40. Could you check?
Satisfied

* * *

System: morningglory (Ipomoea spp.)
TEST SUMMARY: Test A pre-/postemergence plant response
Type: in vivo
EXPERIMENTAL SETUP: Preemergence, 500 g ai/ha; visual injury, 0 to 100 scale (0 no effect, 100 complete control), approx. ten days
Label NOT MET if Plant response rating, Morningglory falls below 70; label MET in every other case.

Example entries and their recorded answers appear below.
[[record]]
compound = "O=C1CCCC(O)=C1C(=O)c1cnc(-c2cccc(Cl)c2)n(-c2ccc(Cl)cc2)c1=O"
class_name = "NOT MET"

[[record]]
compound = "CCCCCc1ncc(C(=O)C2=C(O)CCCC2=O)c(=O)n1-c1ccccc1"
class_name = "NOT MET"

[[record]]
compound = "O=C1CCCC(O)=C1C(=O)c1cnc(C2CCCCC2)n(-c2ccccc2)c1=O"
class_name = "MET"

[[record]]
compound = "CCCCn1c(-c2cccc(F)c2)ncc(C(=O)C2=C(O)CCCC2=O)c1=O"
class_name = "NOT MET"

[[record]]
compound = "COCCCn1c(-c2cc(F)cc(F)c2)ncc(C(=O)C2=C(O)CCCC2=O)c1=O"
class_name = "MET"

[[record]]
compound = "CCCc1ncc(C(=O)C2=C(O)CCCC2=O)c(=O)n1-c1ccccc1C"
class_name = "MET"


Could you verify whether the entry `Cc1cc(-n2c(-c3ccccc3)ncc(C(=O)C3=C(O)CCCC3=O)c2=O)ccc1F` shows Plant response rating, Morningglory of no less than 70?
MET

Could you verify whether the entry `CCCn1c(-c2ccc3c(c2)OCCO3)ncc(C(=O)C2=C(O)CCCC2=O)c1=O` shows Plant response rating, Morningglory of no less than 70?
NOT MET

Could you verify whether the entry CCCc1ncc(C(=O)C2=C(O)CCCC2=O)c(=O)n1CC1CCCO1 (stereo not shown) shows Plant response rating, Morningglory of no less than 70?
NOT MET

* * *

// reported Plant response rating, Morningglory for each item listed
Tested on: morningglory (Ipomoea coccinea)
TEST SUMMARY: Test B pre-/postemergence plant response
Type: in vivo
EXPERIMENTAL SETUP: Postemergence, 62 g ai/ha; scale 0 (no effect) to 100 (complete control); 13 to 15 days
// response body must contain only the number

Use the examples below as a reference point.
[[record]]
compound = "Cc1ccccc1-n1c(-c2cccc(Cl)c2)ncc(C(=O)C2=C(O)CCCC2=O)c1=O [Compound 36]"
study_target = "morningglory (Ipomoea coccinea)"
experimental_value = 70

[[record]]
compound = "O=C1CCCC(O)=C1C(=O)c1cnc(-c2ccccc2)n(-c2ccccc2F)c1=O [Compound 26]"
study_target = "morningglory (Ipomoea coccinea)"
experimental_value = 50

[[record]]
compound = "CCCCc1ncc(C(=O)C2=C(O)CCCC2=O)c(=O)n1-c1ccccc1 [Compound 42]"
study_target = "morningglory (Ipomoea coccinea)"
experimental_value = 70

[[record]]
compound = "CCCCc1ncc(C(=O)C2=C(O)CCCC2=O)c(=O)n1-c1cccc(C)c1 [Compound 63]"
study_target = "morningglory (Ipomoea coccinea)"
experimental_value = 70


Report measured Plant response rating, Morningglory on morningglory (Ipomoea coccinea); entry: Cc1ccccc1-n1c(-c2ccccc2)ncc(C(=O)C2=C(O)CCCC2=O)c1=O [Compound 12]
60

* * *

Tested on: corn (Zea mays)
TEST SUMMARY: Test B pre-/postemergence plant response
Type: in vivo
EXPERIMENTAL SETUP: Postemergence, 250 g ai/ha; scale 0 to 100 (0 no effect, 100 complete control)
MEASUREMENT KIND: Plant response rating, Corn
// response body must contain only the number

Use the examples below as a reference point.
[[record]]
compound = "CCCc1ncc(C(=O)C2=C(O)CCCC2=O)c(=O)n1-c1ccccc1C"
measurement_kind = "Plant response rating, Corn"
experimental_value = 85

[[record]]
compound = "O=C1CCCC(O)=C1C(=O)c1cnc(-c2ccccc2)n(CC2CCCO2)c1=O (centres unmarked)"
measurement_kind = "Plant response rating, Corn"
experimental_value = 75

[[record]]
compound = "COCCCn1c(-c2cccc(C)c2)ncc(C(=O)C2=C(O)CCCC2=O)c1=O"
measurement_kind = "Plant response rating, Corn"
experimental_value = 25


Look up and state reported Plant response rating, Corn for `Cc1ccc(-c2ncc(C(=O)C3=C(O)CCCC3=O)c(=O)n2-c2ccccc2)cc1`
65

Look up and state reported Plant response rating, Corn for `Cc1ccccc1-c1ncc(C(=O)C2=C(O)CCCC2=O)c(=O)n1-c1ccccc1`
15
